assay: Selectivity ratio of IC50 for adrenergic beta2 receptor to IC50 for adrenergic beta1 receptor
quantity: Ratio IC50

# smilesStructure, readingQualifier, recordedValue
data = [
    ("N#Cc1ccccc1OC[C@@H](O)CNCCNC(=O)c1ccc(F)nc1", "=", 4),
    ("N#Cc1ccccc1OC[C@@H](O)CNCCNC(=O)Nc1cccc(OCCF)c1", "=", 265),
    ("N#Cc1ccccc1OC[C@@H](O)CNCCNC(=O)Nc1ccc(Br)nc1", ">", 1000),
    ("N#Cc1ccccc1OC[C@@H](O)CNCCNC(=O)NC1CCN(CCF)CC1", "=", 0.05),
    ("N#Cc1ccccc1OC[C@@H](O)CNCCNC(=O)Nc1ccc(C(=O)O)c(F)c1", "=", 511),
    ("N#Cc1ccccc1OC[C@@H](O)CNCCNC(=O)Nc1ccc(F)cc1", "=", 150),
    ("N#Cc1c(F)cccc1OC[C@@H](O)CNCCNC(=O)Nc1ccc(C(=O)O)cc1", "=", 164),
    ("N#Cc1ccccc1OC[C@@H](O)CNCCNC(=O)Nc1ccc(OCCF)nc1", "=", 50),
    ("COc1ccc(NC(=O)NCCNC[C@H](O)COc2ccccc2C#N)cc1", "=", 145),
    ("N#Cc1ccc(F)cc1OC[C@@H](O)CNCCNC(=O)Nc1ccc(C(=O)O)cc1", "=", 70),
]

###

assay: Selectivity ratio of IC50 for adrenergic beta2 receptor to IC50 for adrenergic beta1 receptor
# thresholds on Ratio IC50 define classes: lower (below 10), middle (10 to below 70), upper (70 or more)

# compound, assignedCategory
records = [
    ("N#Cc1ccccc1OC[C@@H](O)CNCCNC(=O)N1CCOCC1", "lower"),
    ("N#Cc1ccccc1OC[C@@H](O)CNCCNC(=O)Nc1cnc(Br)cn1", "upper"),
    ("N#Cc1ccccc1OC[C@@H](O)CNCCNS(=O)(=O)c1ccccc1F", "lower"),
    ("N#Cc1ccccc1OC[C@@H](O)CNCCNC(=O)Nc1ccc(OCCCF)cc1", "middle"),
    ("N#Cc1ccccc1OC[C@@H](O)CNCCNC(=O)Nc1ccc(I)nc1", "upper"),
    ("CC(CF)Nc1ccc(NC(=O)NCCNC[C@H](O)COc2ccccc2C#N)cc1 (some centres undefined)", "middle"),
    ("N#Cc1ccccc1OC[C@@H](O)CNCCNC(=O)Cc1ccc(F)cc1", "lower"),
    ("N#Cc1ccccc1OC[C@@H](O)CNCCNC(=O)Nc1ccc(OCCF)cc1", "upper"),
    ("CCOc1ccc(NC(=O)NCCNC[C@H](O)COc2cccc(F)c2C#N)cc1", "middle"),
    ("N#Cc1ccccc1OC[C@@H](O)CNCCCC(=O)Nc1ccc(F)nc1", "middle"),
    ("N#Cc1ccccc1OC[C@@H](O)CNCCNC(=O)Nc1ccc(F)nc1", "upper"),
    ("N#Cc1ccccc1OC[C@@H](O)CNCCNC(=O)Nc1nccs1", "lower"),
]

###

target: Beta-1 adrenergic receptor (Homo sapiens, UniProt P08588)
Sequence (P08588 whole entry): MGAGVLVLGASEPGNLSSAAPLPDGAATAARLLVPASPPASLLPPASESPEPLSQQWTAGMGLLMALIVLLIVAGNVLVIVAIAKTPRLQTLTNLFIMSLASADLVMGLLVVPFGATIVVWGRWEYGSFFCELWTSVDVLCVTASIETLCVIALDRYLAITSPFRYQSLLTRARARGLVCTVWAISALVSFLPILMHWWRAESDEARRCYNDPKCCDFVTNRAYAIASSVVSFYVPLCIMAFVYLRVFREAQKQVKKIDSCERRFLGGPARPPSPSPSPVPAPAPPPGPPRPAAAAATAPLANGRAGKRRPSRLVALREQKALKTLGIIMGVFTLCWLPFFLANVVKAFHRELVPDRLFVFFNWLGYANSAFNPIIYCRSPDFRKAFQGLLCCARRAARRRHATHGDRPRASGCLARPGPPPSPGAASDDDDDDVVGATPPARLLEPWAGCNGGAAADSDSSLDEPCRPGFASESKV
pIC50: −log10 of the molar value.
quantity: pIC50

# smilesStructure, quantity, readingQualifier, recordedValue
measured = [
    ("N#Cc1ccccc1OC[C@@H](O)CNCCNC(=O)Nc1nnn(CCF)n1", "pIC50", "=", 8.00),
    ("N#Cc1ccccc1OC[C@@H](O)CNCCNS(=O)(=O)c1ccccc1F", "pIC50", "=", 8.30),
    ("N#Cc1ccccc1OC[C@@H](O)CNCCNC(=O)Nc1ccc(OCCCF)cc1", "pIC50", "=", 9.60),
    ("N#Cc1ccccc1OC[C@@H](O)CNCCNC(=O)Nc1ccc(I)nc1", "pIC50", "=", 10.30),
    ("N#Cc1ccc(F)cc1OC[C@@H](O)CNCCNC(=O)Nc1ccc(C(=O)O)cc1", "pIC50", "=", 8.70),
    ("N#Cc1ccccc1OC[C@@H](O)CNCCNC(=O)c1ccc(F)nc1", "pIC50", "=", 8.00),
    ("N#Cc1ccccc1OC[C@@H](O)CNCCNC(=O)NC1CCN(CCF)CC1", "pIC50", "<", 7.00),
    ("N#Cc1ccccc1OC[C@@H](O)CNCCNC(=O)Nc1cnc(Br)cn1", "pIC50", "=", 9.46),
    ("N#Cc1ccccc1OC[C@@H](O)CNCCNC(=O)N1CCOCC1", "pIC50", "=", 7.70),
    ("N#Cc1c(F)cccc1OC[C@@H](O)CNCCNC(=O)Nc1ccc(C(=O)O)cc1", "pIC50", "=", 7.68),
]
